Biological target: T1, Human ST2 (human, UniProt Q01638 19-328, limits assumed)
T1 construct: also called human ST2 protein; Interleukin 1 receptor-like 1
T1 sequence (looked up): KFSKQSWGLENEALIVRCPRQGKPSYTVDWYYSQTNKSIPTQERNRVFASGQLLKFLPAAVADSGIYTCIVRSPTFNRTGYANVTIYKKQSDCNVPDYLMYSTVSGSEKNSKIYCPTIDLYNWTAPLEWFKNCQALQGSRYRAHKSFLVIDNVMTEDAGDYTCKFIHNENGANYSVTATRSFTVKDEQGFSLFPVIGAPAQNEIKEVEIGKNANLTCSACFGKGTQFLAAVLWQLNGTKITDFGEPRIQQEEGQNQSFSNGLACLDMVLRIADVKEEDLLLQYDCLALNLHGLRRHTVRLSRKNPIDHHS
Test: SPR (Carterra), antibody immobilized, ST2 analyte
Entries and their Kd
experimental readout: Kd (nM)

binder | experimental readout | experimental value
Human ST2 IgG1 Antibody 36 (antibody, V domains shown, IgG1; also called ST2 Antibody 36) VH: QVQLVQSGAEVKKPGASVKVSCKASGYTFTSYGISWVRQAPGQGLEWMGWIDPNSGGTNYAQKFQGRVTMTRDTSTSTVYMELSSLRSEDTAVYYCARDDWFSGDLDYWGQGTLVTVSS VL: DIQMTQSPSSLSASVGDRVTITCRASQGIDSWLAWYQQKPGKAPKLLIYAASKLQGGVPSRFSGSGSGTDFTLTISSLQPEDFATYYCQQGYSTPITFGQGTKVDIKR | Kd | 264
Human ST2 IgG1 Antibody 67 (antibody, V domains shown, IgG1; also called ST2 Antibody 67) VH: QVQLVQSGAEVKKPGASVKVSCKASGGTFSSYAISWVRQAPGQGLEWMGRINPNSGGTVYAQKFQGRVTMTRDTSTSTVYMELSSLRSEDTAVYYCARDTSIAARLNPDYYYYYGMDVWGQGTTVTVSS VL: DIQMTQSPSSLSASVGDRVTITCRASQSISSWLAWYQQKPGKAPKLLIYAASNLQSGVPSRFSGSGSGTDFTLTISSLQPEDFATYYCQQSYSTPVTFGQSTRLEIKR | Kd | 738
